Property: pIC50; scope: individual compounds
- Tested on: CEM cells HIV-1 protection, formazan growth assay
- assayInfo: NCI AIDS Antiviral Assay
- studyConditions: measured here: growth of uninfected CEM cells
Scale note: pIC50 = -log10(concentration in M).

Example results:
Known value: CEM cells HIV-1 protection, formazan growth assay pIC50 of the compound c1ccc2c(c1)[nH]c1nc3cc(-c4ccc5nc6c(nc5c4)[nH]c4ccccc46)ccc3nc12 equals 3.96

Known value: CEM cells HIV-1 protection, formazan growth assay pIC50 of the compound c1cc2c(cc1C1OCC3C(c4ccc5c(c4)OCO5)OCC13)OCO2 (stereo unspecified) equals 4.23

Known value: CEM cells HIV-1 protection, formazan growth assay pIC50 of the compound CCOc1ccc(-n2nc(C(=O)O)cc(Cl)c2=O)cc1 equals 4.74

Known value: CEM cells HIV-1 protection, formazan growth assay pIC50 of the compound O=Cc1[nH]c(=O)[nH]c(=O)c1CO equals 4.03

Known value: CEM cells HIV-1 protection, formazan growth assay pIC50 of the compound CCc1ccccc1NC(=O)Nc1cc(C)ccn1 equals 4.62

Next:
Known value: CEM cells HIV-1 protection, formazan growth assay pIC50 of the compound Cc1c(C(=O)NNc2ccccc2)n2c(=S)[nH]nc2c2ccccc12 equals 4.03

Known value: CEM cells HIV-1 protection, formazan growth assay pIC50 of the compound O=[N+]([O-])c1cccc2c(Nc3ccc(S(=O)(=O)Nc4nccs4)cc3)c3ccccc3nc12 equals 4.66

Known value: CEM cells HIV-1 protection, formazan growth assay pIC50 of the compound CCOC(=O)NC(Nc1ccc([N+](=O)[O-])cc1)(C(F)(F)F)C(F)(F)F equals 4.18

Known value: CEM cells HIV-1 protection, formazan growth assay pIC50 of the compound O=C1O[C@H](COC(=O)c2ccccc2)[C@@H](OC(=O)c2ccccc2)C=C1OC(=O)c1ccccc1 equals 4.69

Known value: CEM cells HIV-1 protection, formazan growth assay pIC50 of the compound CCOP(=O)(CCC(O)CNc1nc(N)nc(Cl)c1N=Nc1ccc(Cl)cc1)OCC (stereo unspecified) equals 5.19

Known value: CEM cells HIV-1 protection, formazan growth assay pIC50 of the compound O=C(N/N=C/c1ccccn1)c1ccccc1[O-].O=C(N/N=C/c1ccccn1)c1ccccc1[O-].[Co+2] equals 4.47

----------
- Tested on: CEM cells HIV-1 protection, formazan growth assay
- assayInfo: NCI AIDS Antiviral Assay
- studyConditions: measured here: growth of uninfected CEM cells
- Method: The ability of compounds to protect human CEM cells from HIV-1 infection is measured as a screen for new compounds capable of inhibiting the HIV virus. Five concentrations of drug were tested on uninfected and infected cells and cell growth was measured using a soluble formazan assay. […] Compounds that provided at least 50% protection were retested. Compounds that provided at least 50% protection on retest were listed as moderately active. […]
pIC50: −log10 of the molar value.
Would you mind labelling by pIC50? At or over 4 is label 1, under is label 0.

Identify whether the reported pIC50 of the following compound is 4 or greater: COc1ccc(C(=O)N2c3ccccc3N(C)n3cccc3C2CC(=O)O)cc1 (stereo unspecified)
label 0

Identify whether the reported pIC50 of the following compound is 4 or greater: Cc1nc2ccc(F)cc2c2c1CCN2c1ccc(Cl)cc1
label 1

Identify whether the reported pIC50 of the following compound is 4 or greater: O=C(CCn1[nH]c(=O)c(Cl)c(Cl)c1=O)NO
label 0

Identify whether the reported pIC50 of the following compound is 4 or greater: CCN(CC)c1ccc(N=Cc2cc(=O)n(C)c3ccccc23)cc1
label 1

Identify whether the reported pIC50 of the following compound is 4 or greater: COC(=O)C1C2c3ccccc3-c3ccccc3C2(OC(C)=O)[C@@]1(Cl)C(=O)OC (stereo partly specified)
label 1

Identify whether the reported pIC50 of the following compound is 4 or greater: CCCCN(CCCC)C(=O)/C(CC(=O)c1cccc2ccccc12)=N\NC(=O)c1cc2ccccc2cc1O
label 1

Next:
Identify whether the reported pIC50 of the following compound is 4 or greater: CC(=O)C1c2ccccc2C(C(C)=O)(c2ccccc2)C1c1ccccc1 (stereo unspecified)
label 1

----------
- Tested on: CEM cells HIV-1 protection, formazan growth assay
- assayInfo: NCI AIDS Antiviral Assay
pEC50: −log10 of the molar value.
Property: pEC50; scope: individual molecules

Example results:
Known value: CEM cells HIV-1 protection, formazan growth assay pEC50 of the molecule CCCCCCCCCCCCCCCCc1c(C(=O)OC)nc(NC#N)[nH]c1=O equals < 4.84

Known value: CEM cells HIV-1 protection, formazan growth assay pEC50 of the molecule Cc1c(Cl)c(=O)oc2cc(O)ccc12 equals < 3.49

Known value: CEM cells HIV-1 protection, formazan growth assay pEC50 of the molecule CC(C)(/C=N\O)NO equals < 3.70

Next:
Known value: CEM cells HIV-1 protection, formazan growth assay pEC50 of the molecule O=C(NNc1nc(-c2ccccc2)cs1)C(F)(F)F equals < 3.70

Known value: CEM cells HIV-1 protection, formazan growth assay pEC50 of the molecule CCCCCCCCCC=C(c1cc(Br)cc(C(=O)O)c1O)c1cc(Br)cc(C(=O)O)c1O equals < 4.64

Known value: CEM cells HIV-1 protection, formazan growth assay pEC50 of the molecule O=c1c2ccccc2oc2nc3ccc(Cl)cc3n12 equals < 4.43

Known value: CEM cells HIV-1 protection, formazan growth assay pEC50 of the molecule CC(C)(C)N1CC1CNC(=O)C(=O)NCC1CN1C(C)(C)C (stereo unspecified) equals < 3.70

Known value: CEM cells HIV-1 protection, formazan growth assay pEC50 of the molecule COC(=O)C(=O)C(C(=O)C(=O)Nc1nc(=S)[nH][nH]1)c1nc2ccc([N+](=O)[O-])cc2[nH]c1=O (stereo unspecified) equals < 3.55

Known value: CEM cells HIV-1 protection, formazan growth assay pEC50 of the molecule CN(CCN1C(=O)c2cccc3cccc(c23)C1=O)CCN1C(=O)c2cccc3cccc(c23)C1=O equals < 4.58

Known value: CEM cells HIV-1 protection, formazan growth assay pEC50 of the molecule CC(=O)OCC1OC(n2cc(C(F)(F)F)c(=O)[nH]c2=O)CC1OC(C)=O (stereo unspecified) equals < 3.70

Known value: CEM cells HIV-1 protection, formazan growth assay pEC50 of the molecule CC12CP(=O)(O)CC1C2(Cl)Cl (stereo unspecified) equals < 3.70

Known value: CEM cells HIV-1 protection, formazan growth assay pEC50 of the molecule O=c1[nH]nc(-c2ccc3ccccc3c2)[nH]1 equals 3.87

Known value: CEM cells HIV-1 protection, formazan growth assay pEC50 of the molecule N#C/C(=C/c1ccc([N+](=O)[O-])o1)c1ccccc1 equals < 2.98

Known value: CEM cells HIV-1 protection, formazan growth assay pEC50 of the molecule COC1(OC)C=CC2C1C1C=CC2C1(OC)OC (stereo unspecified) equals < 3.70

Known value: CEM cells HIV-1 protection, formazan growth assay pEC50 of the molecule COc1cc2cc(C(=O)N3CC(CCl)c4ccc(NCCN)cc43)[nH]c2c(OC)c1OC (stereo unspecified) equals < 5.70

Known value: CEM cells HIV-1 protection, formazan growth assay pEC50 of the molecule Cn1c2c(c3ccccc31)CC(=O)N1CCCC(C1)CC21OCCO1 (stereo unspecified) equals < 3.70

----------
Property: pIC50; scope: individual compounds
- System: CEM cells HIV-1 protection, formazan growth assay
- assayInfo: NCI AIDS Antiviral Assay
- studyConditions: measured here: growth of uninfected CEM cells
Scale note: pIC50 = -log10(concentration in M).

Entry CC(CC12CCC3(OO1)C(C)(C)CCCC3(C)O2)OC(=O)c1ccccc1 (stereo unspecified) ; pIC50 = 4.74

Entry Cn1c2ccccc2c(=O)c2[nH]c3ccccc3c21 ; pIC50 = 4.44

Entry C/C(=N\NC(=S)N1CCCCC1)c1cccc(C)n1 ; pIC50 = 8.21

Entry O=C(O)c1cc(N=Nc2cccc([N+](=O)[O-])c2)ccc1O ; pIC50 = 4.17

Entry [Au+].c1c[n-]cn1.c1ccc([PH+](c2ccccc2)c2ccccc2)cc1 ; pIC50 = 5.20

Entry COc1cccc2c1N(COC(C)=O)C(=O)C1C=CC(C)(C)OC21 (stereo unspecified) ; pIC50 = 4.25

Turning now to a further record.
Entry CCOP(=O)(OCC)/C(C#N)=C/c1cccn1Cc1ccccc1 ; pIC50 = 4.60

----------
- Test system: CEM cells HIV-1 protection, formazan growth assay
- assayInfo: NCI AIDS Antiviral Assay
- studyConditions: measured here: growth of uninfected CEM cells
assayReadout: IC50 (µM)
A number alone suffices; assume µM.

Entry Cc1cccc(C)c1NC(=O)C(=O)Nn1c(NN)nc2ccccc2c1=O ; IC50 = 525

Next:
Entry CCCCCCCCCCCCCCCCCCNc1nc(=O)n(C2CC(O)C(COP(=O)(O)OCC3OC(n4cc(C)c(=O)[nH]c4=O)CC3N=[N+]=[N-])O2)cc1F (stereo not given) ; IC50 = 3.63

Entry O=C(O)C1(C(=O)O)CCC1.[NH2-].[NH2-].[Pt+2] ; IC50 = 7.94

src = PubChem BioAssay AID179
